- testTarget: hMDH2 (Homo sapiens, UniProt P40926)
- Sequence (P40926 25-338): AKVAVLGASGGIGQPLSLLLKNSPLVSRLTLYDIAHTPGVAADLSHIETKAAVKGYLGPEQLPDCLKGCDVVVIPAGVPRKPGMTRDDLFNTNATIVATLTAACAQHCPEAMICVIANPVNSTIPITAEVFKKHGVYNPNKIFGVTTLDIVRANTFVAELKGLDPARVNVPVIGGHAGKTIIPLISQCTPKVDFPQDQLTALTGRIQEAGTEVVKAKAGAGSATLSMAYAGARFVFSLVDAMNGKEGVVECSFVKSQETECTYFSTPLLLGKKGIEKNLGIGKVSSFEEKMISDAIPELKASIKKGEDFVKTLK
- procedureText: NADH oxidation at […] nm
- Assay type: biochemical
- conditionLabel: read-out: % of control activity remaining at 10.0 mM
What remaining activity at 10000 µM was measured for each of the following?

State the recorded remaining activity at 10000 µM for this entry: `Nc1ncnc2c1ncn2[C@@H]1O[C@H](COP(=O)(O)OP(=O)(O)OP(=O)(O)O)[C@@H](O)[C@H]1O`
29.1%

State the recorded remaining activity at 10000 µM for this entry: O=C(O)CC(O)(CC(=O)O)C(=O)O [citrate]
31%

State the recorded remaining activity at 10000 µM for this entry: `NC(=O)c1ccc[n+]([C@@H]2O[C@H](COP(=O)(O)OP(=O)(O)OC[C@H]3O[C@@H](n4cnc5c(N)ncnc54)[C@H](O)[C@@H]3O)[C@@H](O)[C@H]2O)c1`
13.2%

State the recorded remaining activity at 10000 µM for this entry: `Nc1ncnc2c1ncn2[C@@H]1O[C@H](COP(=O)(O)OP(=O)(O)O)[C@@H](O)[C@H]1O`
18.7%

---

What Kd was measured for each of the following?
- testTarget: hMDH2 (Homo sapiens, UniProt P40926, H131W)
- Sequence (P40926 25-338 H131W): as the sequence (P40926 25-338) above, with H107W counted along it
- Type: binding
Answer with a number only, understood to be in mM.

State the recorded Kd for this entry: Nc1ncnc2c1ncn2[C@@H]1O[C@H](COP(=O)(O)OP(=O)(O)OP(=O)(O)O)[C@@H](O)[C@H]1O [ATP]
9.63

State the recorded Kd for this entry: NC(=O)c1ccc[n+]([C@@H]2O[C@H](COP(=O)(O)OP(=O)(O)OC[C@H]3O[C@@H](n4cnc5c(N)ncnc54)[C@H](O)[C@@H]3O)[C@@H](O)[C@H]2O)c1 [NAD^+]
1.02

State the recorded Kd for this entry: Nc1ncnc2c1ncn2[C@@H]1O[C@H](COP(=O)(O)OP(=O)(O)O)[C@@H](O)[C@H]1O [ADP]
3.77

---

- testTarget: hMDH2 (Homo sapiens, UniProt P40926, H131W)
- Type: binding
quantityMeasured: Kd (mM)
Answer with a number only, understood to be in mM.

State the recorded Kd for this entry: O=C(O)CCC(=O)C(=O)O [α-ketoglutarate]
10.4
